Quick list: MIC per entry.
# System: MP104 (E. coli TOP10 expressing native OXA-48)
# test_details: MIC determination, TOP10 expressing native OXA-48 (MP104)
# Assay type: cell-based
# condition_description: Escherichia coli; Table 3; MP104, native OXA-48 in pCR-blunt II TOPO
# Description: For MIC determination, single colonies were suspended in 0.9% saline buffer to a 0.5 McFarland standard and further diluted 1:100 in MH broth. Fifty microliters of the bacterial suspension was loaded onto in-house-designed and premade Sensititre microtiter plates (TREK Diagnostic Systems/Thermo Fisher Scientific, East Grinstead, United Kingdom). The plates were incubated for 20 h at 37°C. Antibiotic susceptibility testing was performed in duplicates. […]
observed_property: MIC (mg/L)

CO/N=C(\C(=O)N[C@@H]1C(=O)N2C(C(=O)O)=C(COC(C)=O)CS[C@H]12)c1csc(N)n1 [FOT, cefotaxime]; 0.25
CO/N=C(\C(=O)N[C@@H]1C(=O)N2C(C(=O)O)=C(COC(N)=O)CS[C@H]12)c1ccco1 [CXM, cefuroxime]; 16
CO/N=C(\C(=O)N[C@@H]1C(=O)N2C(C(=O)[O-])=C(C[N+]3(C)CCCC3)CS[C@H]12)c1csc(N)n1 [FEP, cefepime]; 0.12
C[C@@H](O)[C@H]1C(=O)N2C(C(=O)O)=C(SCCN=CN)C[C@H]12 [IMI, imipenem]; 1
C[C@@H](O)[C@H]1C(=O)N2C(C(=O)O)=C(S[C@@H]3CN[C@H](C(=O)Nc4cccc(C(=O)O)c4)C3)[C@H](C)[C@H]12 [ETP, ertapenem]; 1
CO[C@@]1(NC(=O)C(C(=O)O)c2ccsc2)C(=O)N2[C@@H](C(=O)O)C(C)(C)S[C@@H]21 (stereo partly drawn) [TRM, temocillin]; 256
C[C@@H](O)[C@H]1C(=O)N2C(C(=O)O)=C(S[C@@H]3CN[C@H](C(=O)N(C)C)C3)[C@H](C)[C@H]12 [MEM, meropenem]; 0.25
C[C@@H](O)[C@H]1C(=O)N2C(C(=O)O)=C(S[C@@H]3CN[C@H](CNS(N)(=O)=O)C3)[C@H](C)[C@H]12 [DOR, doripenem]; 0.03
CC(C)(O/N=C(\C(=O)N[C@@H]1C(=O)N2C(C(=O)[O-])=C(C[n+]3ccccc3)CS[C@H]12)c1csc(N)n1)C(=O)O [CAZ, ceftazidime]; 0.5
